# Test system: CCD-18Co cells
# experimentalDetails: MTS antiproliferative assay, normal colon CCD-18Co
# Assay type: cell-based
# setupConditions: Homo sapiens, MTS assay control, read-out: IC50 CCD-18Co (control of proliferation)
pIC50: −log10 of the molar value.
valueType: pIC50

compound	valueType	assayResult
COc1cc([C@@H]2c3cc4c(cc3[C@@H](O[C@@H]3O[C@@H]5CO[C@@H](C)O[C@H]5[C@H](O)[C@H]3O)[C@H]3COC(=O)[C@H]23)OCO4)cc(OC)c1O [Etoposide, reference compound]	pIC50	4.40 to 4.52

====

# Test system: Caco-2 cells
# experimentalDetails: MTS antiproliferative assay, Caco-2
# Format: cell-based
# setupConditions: Homo sapiens, Caco-2; MTS assay control; read-out: IC50 Caco-2 (control of proliferation)

compound	IC50
COc1cc([C@@H]2c3cc4c(cc3[C@@H](O[C@@H]3O[C@@H]5CO[C@@H](C)O[C@H]5[C@H](O)[C@H]3O)[C@H]3COC(=O)[C@H]23)OCO4)cc(OC)c1O [Etoposide, reference compound]	10 to 20 µM
